Molecular target: P-glycoprotein (P-gp) (Homo sapiens)
Construct: expressed in transfected cells; host or cells: MDCK-MDR1 cells
Sequence (P08183 whole entry): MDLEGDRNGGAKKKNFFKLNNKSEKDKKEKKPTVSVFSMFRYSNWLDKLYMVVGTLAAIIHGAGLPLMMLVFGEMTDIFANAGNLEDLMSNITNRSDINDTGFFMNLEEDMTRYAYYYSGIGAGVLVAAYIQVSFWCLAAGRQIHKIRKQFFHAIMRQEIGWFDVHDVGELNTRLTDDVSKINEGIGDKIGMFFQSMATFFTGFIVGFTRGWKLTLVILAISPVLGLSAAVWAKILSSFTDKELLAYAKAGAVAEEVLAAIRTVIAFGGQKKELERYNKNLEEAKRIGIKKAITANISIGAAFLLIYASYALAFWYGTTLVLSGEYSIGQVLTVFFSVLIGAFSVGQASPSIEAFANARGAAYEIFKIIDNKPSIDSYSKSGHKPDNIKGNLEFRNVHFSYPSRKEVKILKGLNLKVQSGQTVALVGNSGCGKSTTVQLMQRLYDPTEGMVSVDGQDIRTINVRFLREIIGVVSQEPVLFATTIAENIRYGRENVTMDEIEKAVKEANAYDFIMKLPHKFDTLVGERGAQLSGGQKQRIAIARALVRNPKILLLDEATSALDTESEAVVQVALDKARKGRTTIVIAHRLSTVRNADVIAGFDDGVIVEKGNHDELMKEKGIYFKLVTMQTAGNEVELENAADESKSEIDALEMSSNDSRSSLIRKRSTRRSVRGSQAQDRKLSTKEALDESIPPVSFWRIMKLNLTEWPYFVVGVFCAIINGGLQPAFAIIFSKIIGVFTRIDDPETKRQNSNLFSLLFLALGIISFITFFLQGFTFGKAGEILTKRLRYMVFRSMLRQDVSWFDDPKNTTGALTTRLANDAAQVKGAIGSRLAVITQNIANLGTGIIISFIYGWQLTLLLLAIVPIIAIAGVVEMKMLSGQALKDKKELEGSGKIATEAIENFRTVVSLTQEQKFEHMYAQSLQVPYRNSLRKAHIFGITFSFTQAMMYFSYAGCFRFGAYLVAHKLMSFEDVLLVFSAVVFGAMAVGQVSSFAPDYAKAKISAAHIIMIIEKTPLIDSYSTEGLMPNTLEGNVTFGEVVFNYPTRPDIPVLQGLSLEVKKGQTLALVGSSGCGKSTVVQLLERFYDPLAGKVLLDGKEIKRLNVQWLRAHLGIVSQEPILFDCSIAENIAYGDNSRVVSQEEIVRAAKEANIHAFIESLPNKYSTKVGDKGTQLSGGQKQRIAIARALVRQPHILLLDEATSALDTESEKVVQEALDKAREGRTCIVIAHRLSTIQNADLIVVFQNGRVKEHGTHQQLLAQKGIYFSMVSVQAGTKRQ
Experiment: P-gp MDCK-MDR1 permeability assay
Format: in vitro ADME
Settings: efflux ratio, MDCK-MDR1 cells
Protocol: P-gp MDCK-MDR1 Studies. The compounds of the present disclosure were tested in a MDCK-MDR1 permeability assay to assess whether they are actively transported out of cells by the efflux protein, P-glycoprotein (P-gp). Protocol. […] For assessment of B-A permeability, transport buffer was removed from the basolateral companion plate and replaced with dosing solution. […] Seven concentrations of test compound (up to 100 μM) were assessed in addition to a vehicle control (0 μM). […]
Endpoint Label: MDCK-MDR1 ER

| Compound | Endpoint Label | Experimental Value |
| --- | --- | --- |
| Cn1cc(N(CC2CCCCO2)S(=O)(=O)NC(=O)Nc2c3c(cc4c2CC4)CC3)cn1 (stereo in doubt) [Compound 7B] | MDCK-MDR1 ER | * (“*” means ≥30) |
| Cn1cc(N(C[C@H]2CCCO2)S(=O)(=O)NC(=O)Nc2c3c(cc4c2CC4)CC3)cn1 | MDCK-MDR1 ER | * (“*” means ≥30) |
| Cn1cc(N(C[C@@H]2CCCO2)S(=O)(=O)NC(=O)Nc2c3c(cc4c2CC4)CC3)cn1 | MDCK-MDR1 ER | * (“*” means ≥30) |
